Biological target: T1, human PD-L1-Fc (human, UniProt Q9NZQ7 19-239)
T1 construct: also called hPD-L1-Fc; human PD-L1-Fc (Sino Biological, 70110-D02H); not shown: Fc part
T1 sequence (Q9NZQ7 19-239 limits assumed): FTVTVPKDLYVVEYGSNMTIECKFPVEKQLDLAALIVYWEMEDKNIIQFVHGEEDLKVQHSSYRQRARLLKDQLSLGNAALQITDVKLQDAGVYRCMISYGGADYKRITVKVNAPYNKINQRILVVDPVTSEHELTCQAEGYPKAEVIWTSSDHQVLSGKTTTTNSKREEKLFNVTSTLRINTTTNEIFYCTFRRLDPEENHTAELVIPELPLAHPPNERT
Test: BLI; against H-CDR2-WT (G55A)
Quick reference for Fold increase among some binders

binder	Fold increase
4B6 scFv variant H-CDR2-3 (scFv, also called 4B6-H-CDR2-3) scFv: DIQMTQSPSSLSASVGDRVTITCKASQNVGAAVAWYQQKPGKAPKLLIYSASNRYTGVPSRFSGSGSGTDFTLTISSLQPEDIATYYCQQYSNYPTFGQGTKLEIKGGGGSGGGGSGGGGSQVQLVQSGAEVKKPGASVKVSCKASGYVFTDYYMNWVRQAPGQSLEWMGDINPNNAETLYNHKFKGRVTVTVDKSISTAYMELSRLRSDDTAVYYCVKWGDGPFAYWGQGTLVTVSS	11 fold
4B6 scFv variant H-CDR2-4 (scFv, also called 4B6-H-CDR2-4) scFv: DIQMTQSPSSLSASVGDRVTITCKASQNVGAAVAWYQQKPGKAPKLLIYSASNRYTGVPSRFSGSGSGTDFTLTISSLQPEDIATYYCQQYSNYPTFGQGTKLEIKGGGGSGGGGSGGGGSQVQLVQSGAEVKKPGASVKVSCKASGYVFTDYYMNWVRQAPGQSLEWMGDINPNNGLTSYNHKFKGRVTVTVDKSISTAYMELSRLRSDDTAVYYCVKWGDGPFAYWGQGTLVTVSS	6.03 fold
4B6 scFv variant H-CDR2-5 (scFv, also called 4B6-H-CDR2-5) scFv: DIQMTQSPSSLSASVGDRVTITCKASQNVGAAVAWYQQKPGKAPKLLIYSASNRYTGVPSRFSGSGSGTDFTLTISSLQPEDIATYYCQQYSNYPTFGQGTKLEIKGGGGSGGGGSGGGGSQVQLVQSGAEVKKPGASVKVSCKASGYVFTDYYMNWVRQAPGQSLEWMGDINPNNAQTVYNHKFKGRVTVTVDKSISTAYMELSRLRSDDTAVYYCVKWGDGPFAYWGQGTLVTVSS	11.1 fold
4B6 scFv variant H-CDR2-1 (scFv, also called 4B6-H-CDR2-1) scFv: DIQMTQSPSSLSASVGDRVTITCKASQNVGAAVAWYQQKPGKAPKLLIYSASNRYTGVPSRFSGSGSGTDFTLTISSLQPEDIATYYCQQYSNYPTFGQGTKLEIKGGGGSGGGGSGGGGSQVQLVQSGAEVKKPGASVKVSCKASGYVFTDYYMNWVRQAPGQSLEWMGDINPNNADTMYNHKFKGRVTVTVDKSISTAYMELSRLRSDDTAVYYCVKWGDGPFAYWGQGTLVTVSS	7.6 fold
4B6 scFv variant H-CDR2-2 (scFv, also called 4B6-H-CDR2-2) scFv: DIQMTQSPSSLSASVGDRVTITCKASQNVGAAVAWYQQKPGKAPKLLIYSASNRYTGVPSRFSGSGSGTDFTLTISSLQPEDIATYYCQQYSNYPTFGQGTKLEIKGGGGSGGGGSGGGGSQVQLVQSGAEVKKPGASVKVSCKASGYVFTDYYMNWVRQAPGQSLEWMGDINPNNAQTQYNHKFKGRVTVTVDKSISTAYMELSRLRSDDTAVYYCVKWGDGPFAYWGQGTLVTVSS	11 fold
